- assay_target: human CH24H (Homo sapiens)
- Construct: Using Full-Length Mammalian Gene Collection No. 4819975 (Invitrogen) as a template; made in house; host or cells: FreeStyle 293-F cells (transient transfection with pcDNA3.1(+)/hCH24H); cell lysate supernatant
- assay_overview: Measurement of CH24H inhibitory activity (24-HC produced from [14C] cholesterol by human CH24H lysate)
- Assay type: biochemical
- experimental_setup: 1 μM test compound, [14C] cholesterol 15 μM, 37° C. for 5 hr, read-out: Inhibitory Rate in 1 μM (%)
observable: inhibition at 1 µM (%)

[[record]]
molecule = "O=C(C1CC1)N1CCOc2c(-c3cnco3)cc(C(F)(F)F)cc21 [Example 54]"
observable = "inhibition at 1 µM"
result_units = "%"
endpoint_result = 92

[[record]]
molecule = "O=C(N1CCc2c(-c3cnco3)cc(C(F)(F)F)cc21)N1C[C@@H]2C[C@H]1CO2 [Example 128]"
observable = "inhibition at 1 µM"
result_units = "%"
endpoint_result = 97

[[record]]
molecule = "O=C(C1CC1)N1CCc2c(-c3cnco3)cc(C(F)(F)F)cc21 [Example 36]"
observable = "inhibition at 1 µM"
result_units = "%"
endpoint_result = 92

[[record]]
molecule = "O=C(Nc1cc(C(F)(F)F)cc(-c2cnco2)n1)C1CC1 [Example 61]"
observable = "inhibition at 1 µM"
result_units = "%"
endpoint_result = 88

[[record]]
molecule = "O=C(C1CCOCC1)N1CCc2c(-c3cnco3)cc(C(F)(F)F)cc21 [Example 87]"
observable = "inhibition at 1 µM"
result_units = "%"
endpoint_result = 97


---

- assay_target: human CH24H (Homo sapiens, UniProt Q9Y6A2)
- Construct: Using Full-Length Mammalian Gene Collection No. 4819975 (Invitrogen) as a template; made in house; host or cells: FreeStyle 293-F cells (transient transfection with pcDNA3.1(+)/hCH24H); cell lysate supernatant
- Sequence (Q9Y6A2 whole entry): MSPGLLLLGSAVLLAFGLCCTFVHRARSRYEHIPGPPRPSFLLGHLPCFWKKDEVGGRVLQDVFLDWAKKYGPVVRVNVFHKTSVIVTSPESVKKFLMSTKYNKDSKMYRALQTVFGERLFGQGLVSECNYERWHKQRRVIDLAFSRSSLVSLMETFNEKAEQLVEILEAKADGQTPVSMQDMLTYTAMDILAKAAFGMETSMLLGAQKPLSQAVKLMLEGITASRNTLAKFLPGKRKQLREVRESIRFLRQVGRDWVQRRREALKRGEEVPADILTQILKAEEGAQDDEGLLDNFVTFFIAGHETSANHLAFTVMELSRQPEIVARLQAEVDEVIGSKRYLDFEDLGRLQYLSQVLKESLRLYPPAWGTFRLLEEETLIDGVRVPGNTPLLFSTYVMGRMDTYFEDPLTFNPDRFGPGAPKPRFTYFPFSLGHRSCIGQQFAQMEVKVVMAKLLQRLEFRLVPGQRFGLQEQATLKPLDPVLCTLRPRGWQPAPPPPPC
- assay_overview: Measurement of CH24H inhibitory activity (24-HC produced from [14C] cholesterol by human CH24H lysate)
- Format: biochemical
- experimental_setup: 1 μM test compound, [14C] cholesterol 15 μM, 37° C. for 5 hr, read-out: Inhibitory Rate in 1 μM (%)
- Procedure: A plasmid DNA for expressing human CH24H in a FreeStyle 293 cell was produced as follows. […] For the measurement of CH24H inhibitory activity, using the human CH24H lysate prepared in Experimental Example 2, the amount of 24-HC produced from cholesterol by catalytic activity of CH24H was measured in the presence of a test compound, and compared with that measured in the absence of the test compound. […]
observable: inhibition at 1 µM

[[record]]
compound = "O=C(N1CCOCC1)N1CCc2c(-c3cnco3)cc(C(F)(F)F)cc21 [Example 83]"
endpoint_result = "92%"

[[record]]
compound = "O=S(=O)(Nc1cc2c(c(-c3cnco3)c1)OCC2)c1cccc(Cl)c1 [Example 10]"
endpoint_result = "83%"

[[record]]
compound = "FC(F)(F)c1cc(NCc2ccccn2)cc(-c2cnco2)c1 [Example 56]"
endpoint_result = "88%"

[[record]]
compound = "OC1(Cc2ccccc2)CCN(c2cc(-c3cnco3)cc(C(F)(F)F)c2)CC1 [Example 92]"
endpoint_result = "89%"

[[record]]
compound = "O=C(Nc1cc2c(c(-c3cnco3)c1)OCC2)C1CC1 [Example 58]"
endpoint_result = "84%"

[[record]]
compound = "O=C(Nc1cc(-c2cnco2)cc(C(F)(F)F)c1)c1cccc(Cl)c1 [Example 1]"
endpoint_result = "89%"

[[record]]
compound = "CC(=O)N1CCN(c2cc(-c3cnco3)cc(C(F)(F)F)c2)CC1 [Example 107]"
endpoint_result = "91%"

[[record]]
compound = "O=C(C1CC1)N1CCCOc2c(-c3cnco3)cc(C(F)(F)F)cc21 [Example 53]"
endpoint_result = "52%"

[[record]]
compound = "OC1CN(c2cc(-c3cnco3)cc(C(F)(F)F)c2)CCC1Cc1ccccc1 (stereo not drawn) [Example 100]"
endpoint_result = "97%"

[[record]]
compound = "O=C(Cn1ccnc1)Nc1cc(-c2cnco2)cc(C(F)(F)F)c1 [Example 43]"
endpoint_result = "90%"

[[record]]
compound = "O=C(Nc1cc(-c2cnco2)cc(C(F)F)c1)C1CC1 [Example 31]"
endpoint_result = "90%"

[[record]]
compound = "O[C@H]1CCN(c2cc(-c3cnco3)cc(C(F)(F)F)c2)C1 [Example 95]"
endpoint_result = "96%"

[[record]]
compound = "CC(C)c1cc(NS(=O)(=O)c2cccc(Cl)c2)cc(-c2cnco2)c1 [Example 4]"
endpoint_result = "89%"

[[record]]
compound = "O=C(Nc1cc(-c2cnco2)cc(C2CC2)c1)c1cccc(Cl)c1 [Example 5]"
endpoint_result = "79%"

[[record]]
compound = "CC1(C)CCN(c2cc(-c3cnco3)cc(C(F)(F)F)c2)C1=O [Example 127]"
endpoint_result = "91%"

[[record]]
compound = "O=C(Nc1cc(-c2cnco2)cc(C(F)(F)F)c1)C1CC1 [Example 17]"
endpoint_result = "89%"

[[record]]
compound = "CS(=O)(=O)NC1CCN(c2cc(-c3cnco3)cc(C(F)(F)F)c2)C1 (stereo not drawn) [Example 119]"
endpoint_result = "95%"

[[record]]
compound = "OC1CCN(c2cc(C(F)(F)F)cc(-c3cnco3)n2)C1 (stereo not drawn) [Example 96]"
endpoint_result = "91%"

[[record]]
compound = "CC(C)C(=O)N1CCc2c(-c3cnco3)cc(C(F)(F)F)cc21 [Example 80]"
endpoint_result = "91%"

[[record]]
compound = "CC1(C)CCN(c2cc(C(F)(F)F)cc(-c3cnco3)n2)C1=O [Example 134]"
endpoint_result = "89%"

[[record]]
compound = "FC1(F)CCN(c2cc(-c3cnco3)cc(C(F)(F)F)c2)CC1 [Example 89]"
endpoint_result = "93%"

